assay: clinical; settings: human, in vivo, po, 60 mg
assayEndpoint: k el (s⁻¹)
Numeric only. Scale: s⁻¹

Could you tell me which k el is on file for Cc1ccc(C(=O)NCCCCCC(=O)Nc2ccccc2N)cc1 [HDACi 109] ?
2.37e-05

====

target: human ether-a-go-go related gene (hERG) (Homo sapiens, UniProt Q12809); assay: Automated patch clamp assay
Sequence (Q12809 whole entry): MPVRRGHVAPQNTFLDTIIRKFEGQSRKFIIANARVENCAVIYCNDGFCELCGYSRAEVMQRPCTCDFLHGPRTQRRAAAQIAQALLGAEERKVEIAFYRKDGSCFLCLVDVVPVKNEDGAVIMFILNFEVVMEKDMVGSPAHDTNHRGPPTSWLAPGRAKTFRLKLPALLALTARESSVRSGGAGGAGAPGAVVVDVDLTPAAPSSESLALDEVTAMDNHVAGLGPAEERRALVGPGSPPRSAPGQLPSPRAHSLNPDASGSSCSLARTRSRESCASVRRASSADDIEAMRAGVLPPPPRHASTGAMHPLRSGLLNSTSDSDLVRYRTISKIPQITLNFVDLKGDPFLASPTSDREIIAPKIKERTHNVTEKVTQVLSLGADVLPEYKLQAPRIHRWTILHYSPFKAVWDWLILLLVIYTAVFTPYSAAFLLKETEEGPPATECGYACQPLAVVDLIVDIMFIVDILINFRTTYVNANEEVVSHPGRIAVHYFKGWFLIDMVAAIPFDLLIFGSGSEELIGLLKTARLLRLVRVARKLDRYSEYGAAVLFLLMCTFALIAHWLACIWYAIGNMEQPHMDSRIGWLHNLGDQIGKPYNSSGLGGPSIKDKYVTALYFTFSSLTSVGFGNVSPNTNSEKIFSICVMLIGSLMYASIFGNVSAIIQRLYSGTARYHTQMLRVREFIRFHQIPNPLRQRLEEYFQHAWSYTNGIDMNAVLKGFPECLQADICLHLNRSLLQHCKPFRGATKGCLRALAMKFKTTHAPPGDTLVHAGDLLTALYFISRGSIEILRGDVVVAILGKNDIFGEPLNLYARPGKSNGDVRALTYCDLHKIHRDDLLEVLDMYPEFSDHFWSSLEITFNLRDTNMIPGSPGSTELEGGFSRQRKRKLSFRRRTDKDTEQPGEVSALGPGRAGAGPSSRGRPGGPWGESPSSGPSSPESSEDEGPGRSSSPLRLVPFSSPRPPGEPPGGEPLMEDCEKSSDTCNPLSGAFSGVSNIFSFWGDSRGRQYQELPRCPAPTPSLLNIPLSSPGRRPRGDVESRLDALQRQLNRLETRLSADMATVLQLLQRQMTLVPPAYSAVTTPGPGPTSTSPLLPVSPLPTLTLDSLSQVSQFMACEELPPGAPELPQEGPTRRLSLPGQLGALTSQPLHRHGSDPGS
assayEndpoint: pIC50
Reminder that pIC50 is minus the log10 of a molar concentration.

Could you tell me which pIC50 is on file for c1ccc2[nH]cnc2c1 ?
6.04

====

assay: clinical; details: human, in vivo, po
assayEndpoint: AUC(0-t)

Could you tell me which AUC(0-t) is on file for Cc1ccc(C(=O)NCCCCCC(=O)Nc2ccccc2N)cc1 ?
39300 ng·h/mL

====

test: clinical; conditions: human, in vivo, po, 120 mg
assayEndpoint: Tmax (h)
Numeric only. Scale: h

Could you tell me which Tmax is on file for Cc1ccc(C(=O)NCCCCCC(=O)Nc2ccccc2N)cc1 ?
1

====

experiment: clinical; conditions: human, in vivo, po, 180 mg
assayEndpoint: Tmax (min)
Numeric only. Scale: min

Could you tell me which Tmax is on file for Cc1ccc(C(=O)NCCCCCC(=O)Nc2ccccc2N)cc1 ?
40.2

====

test: clinical; conditions: human, in vivo, po, t½ (elimination half-life)
assayEndpoint: half-life
Report field: quantity (unit follows the number).

Could you tell me which half-life is on file for Cc1ccc(C(=O)NCCCCCC(=O)Nc2ccccc2N)cc1 ?
8.56 h

====

experiment: clinical; conditions: human, in vivo, po, 60 mg
assayEndpoint: AUC(0-inf) (ng·h/mL)
Numeric only. Scale: ng·h/mL

Could you tell me which AUC(0-inf) is on file for Cc1ccc(C(=O)NCCCCCC(=O)Nc2ccccc2N)cc1 [HDACi 109] ?
9720

====

assay: clinical; details: human, in vivo, po, 30 mg
assayEndpoint: k el
Report field: quantity (unit follows the number).

Could you tell me which k el is on file for Cc1ccc(C(=O)NCCCCCC(=O)Nc2ccccc2N)cc1 ?
2.49e-05 s⁻¹

====

assay: clinical; conditions: human, in vivo, po, 120 mg
assayEndpoint: CL/F (mL/min/kg)
Numeric only. Scale: mL/min/kg

Could you tell me which CL/F is on file for Cc1ccc(C(=O)NCCCCCC(=O)Nc2ccccc2N)cc1 ?
1.42

====

test: clinical; settings: human, in vivo, po, 30 mg
assayEndpoint: AUC(0-inf) (ng·h/mL)
Numeric only. Scale: ng·h/mL

Could you tell me which AUC(0-inf) is on file for Cc1ccc(C(=O)NCCCCCC(=O)Nc2ccccc2N)cc1 ?
7760

====

assay: clinical; details: human, in vivo, po, 120 mg, t½ (elimination half-life)
assayEndpoint: half-life
Report field: quantity (unit follows the number).

Could you tell me which half-life is on file for Cc1ccc(C(=O)NCCCCCC(=O)Nc2ccccc2N)cc1 ?
10.1 h

====

assay: clinical; settings: human, in vivo, po
assayEndpoint: k el (s⁻¹)
Numeric only. Scale: s⁻¹

Could you tell me which k el is on file for Cc1ccc(C(=O)NCCCCCC(=O)Nc2ccccc2N)cc1 ?
2.34e-05

====

experiment: clinical; conditions: human, in vivo, po, 180 mg, t½ (elimination half-life)
assayEndpoint: half-life (h)
Numeric only. Scale: h

Could you tell me which half-life is on file for Cc1ccc(C(=O)NCCCCCC(=O)Nc2ccccc2N)cc1 ?
7.07

====

test: clinical; conditions: human, in vivo, po, 30 mg
assayEndpoint: CL/F (mL/min/kg)
Numeric only. Scale: mL/min/kg

Could you tell me which CL/F is on file for Cc1ccc(C(=O)NCCCCCC(=O)Nc2ccccc2N)cc1 ?
1.02

====

test: clinical; details: human, in vivo, po, 180 mg
assayEndpoint: k el (s⁻¹)
Numeric only. Scale: s⁻¹

Could you tell me which k el is on file for Cc1ccc(C(=O)NCCCCCC(=O)Nc2ccccc2N)cc1 ?
2.82e-05

====

test: clinical; details: human, in vivo, po, 180 mg
assayEndpoint: AUC(0-inf) (ng·h/mL)
Numeric only. Scale: ng·h/mL

Could you tell me which AUC(0-inf) is on file for Cc1ccc(C(=O)NCCCCCC(=O)Nc2ccccc2N)cc1 ?
35100

====

experiment: clinical; conditions: human, in vivo, po
assayEndpoint: Tmax (min)
Numeric only. Scale: min

Could you tell me which Tmax is on file for Cc1ccc(C(=O)NCCCCCC(=O)Nc2ccccc2N)cc1 [HDACi 109] ?
30

====

assay: clinical; settings: human, in vivo, po, 180 mg
assayEndpoint: AUC(0-t) (ng·h/mL)
Numeric only. Scale: ng·h/mL

Could you tell me which AUC(0-t) is on file for Cc1ccc(C(=O)NCCCCCC(=O)Nc2ccccc2N)cc1 ?
34900

====

assay: clinical; conditions: human, in vivo, po, 60 mg
assayEndpoint: AUC(0-t) (ng·h/mL)
Numeric only. Scale: ng·h/mL

Could you tell me which AUC(0-t) is on file for Cc1ccc(C(=O)NCCCCCC(=O)Nc2ccccc2N)cc1 [HDACi 109] ?
9630

====

experiment: clinical; details: human, in vivo, po
assayEndpoint: CL/F (mL/min/kg)
Numeric only. Scale: mL/min/kg

Could you tell me which CL/F is on file for Cc1ccc(C(=O)NCCCCCC(=O)Nc2ccccc2N)cc1 ?
1.98

====

experiment: clinical; settings: human, in vivo, po, 180 mg
assayEndpoint: Cmax (ng/mL)
Numeric only. Scale: ng/mL

Could you tell me which Cmax is on file for Cc1ccc(C(=O)NCCCCCC(=O)Nc2ccccc2N)cc1 ?
10900

====

test: clinical; conditions: human, in vivo, po, 120 mg
assayEndpoint: k el (s⁻¹)
Numeric only. Scale: s⁻¹

Could you tell me which k el is on file for Cc1ccc(C(=O)NCCCCCC(=O)Nc2ccccc2N)cc1 [HDACi 109] ?
2.05e-05

====

experiment: clinical; conditions: human, in vivo, po, 120 mg
assayEndpoint: Cmax (ng/mL)
Numeric only. Scale: ng/mL

Could you tell me which Cmax is on file for Cc1ccc(C(=O)NCCCCCC(=O)Nc2ccccc2N)cc1 ?
6470

====

assay: clinical; details: human, in vivo, po, 30 mg
assayEndpoint: AUC(0-t) (µg·h/mL)
Numeric only. Scale: µg·h/mL

Could you tell me which AUC(0-t) is on file for Cc1ccc(C(=O)NCCCCCC(=O)Nc2ccccc2N)cc1 ?
7.7

Data provenance is paper PMC4361037.
